- Tgt: DLG4 PDZ 1 (Homo sapiens, UniProt P78352)
- Construct: made in house; host or cells: E. coli
- Sequence (P78352 65-151): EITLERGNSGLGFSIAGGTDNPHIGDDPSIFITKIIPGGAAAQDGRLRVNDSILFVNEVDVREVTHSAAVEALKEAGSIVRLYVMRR
- Protocol Notes: Holdup assay, DLG4-1
- Type: binding
- Settings: DLG4-1
*1 amine or outer side, *2 acyl side, *3 side chain or, on linkers, in order; H or OH if unused. Where a SMILES comes first, the peptide text is derived from it. The star is where a group is joined. X1 = O=C(CCCC[C@@H]1SC[C@@H]2NC(=O)N[C@@H]21)NCCCOCCOCCOCCCN*; Suc = O=C(CCC(=O)[*:2])[*:1]
// values below are reported BI
Lab note: record just the number, no unit beside it.

Compound	Tgt	Result
CC[C@H](C)[C@H](NC(=O)[C@H](CCC(N)=O)NC(=O)[C@@H](NC(=O)[C@H](Cc1c[nH]cn1)NC(=O)[C@H](CCC(N)=O)NC(=O)[C@H](CC(=O)O)NC(=O)[C@H](CCC(=O)O)NC(=O)[C@H](CC(=O)O)NC(=O)CCC(=O)NCCCOCCOCCOCCCNC(=O)CCCC[C@@H]1SC[C@@H]2NC(=O)N[C@@H]21)[C@@H](C)O)C(=O)N[C@H](C(=O)N[C@@H](CCCCN)C(=O)N[C@H](C(=O)O)C(C)C)[C@@H](C)O	DLG4 PDZ 1 (Homo sapiens, UniProt P78352)	0.103
CC[C@H](C)[C@H](NC(=O)[C@H](CCC(N)=O)NC(=O)[C@@H](NC(=O)[C@H](Cc1c[nH]cn1)NC(=O)[C@H](CCC(N)=O)NC(=O)[C@H](CC(=O)O)NC(=O)[C@H](CCC(=O)O)NC(=O)[C@H](CC(=O)O)NC(=O)CCC(=O)NCCCOCCOCCOCCCNC(=O)CCCC[C@@H]1SC[C@@H]2NC(=O)N[C@@H]21)[C@@H](C)O)C(=O)N[C@H](C(=O)N[C@@H](CCCNC(=N)N)C(=O)N[C@H](C(=O)O)C(C)C)[C@@H](C)O [PTEN_KR] ({X1-Suc}-DEDQHTQITRV-OH)	DLG4 PDZ 1 (Homo sapiens, UniProt P78352)	0.229
CC[C@H](C)[C@H](NC(=O)[C@H](CCC(N)=O)NC(=O)[C@@H](NC(=O)[C@H](Cc1c[nH]cn1)NC(=O)[C@H](CCC(N)=O)NC(=O)[C@H](CC(=O)O)NC(=O)[C@H](CCC(=O)O)NC(=O)[C@H](CC(=O)O)NC(=O)CCC(=O)NCCCOCCOCCOCCCNC(=O)CCCC[C@@H]1SC[C@@H]2NC(=O)N[C@@H]21)[C@@H](C)O)C(=O)N[C@H](C(=O)N[C@@H](CCCCNC(C)=O)C(=O)N[C@H](C(=O)O)C(C)C)[C@@H](C)O	DLG4 PDZ 1 (Homo sapiens, UniProt P78352)	0.15

Next compound, please.
Complete the entry with BI for CC[C@H](C)[C@H](NC(=O)[C@H](CCC(N)=O)NC(=O)[C@@H](NC(=O)[C@H](Cc1c[nH]cn1)NC(=O)[C@H](CCC(N)=O)NC(=O)[C@H](CC(=O)O)NC(=O)[C@H](CCC(=O)O)NC(=O)[C@H](CC(=O)O)NC(=O)[C@H](Cc1ccccc1)NC(=O)[C@@H]1CCCN1C(=O)CCC(=O)NCCCOCCOCCOCCCNC(=O)CCCC[C@@H]1SC[C@@H]2NC(=O)N[C@@H]21)[C@@H](C)O)C(=O)N[C@H](C(=O)N[C@@H](CCCCN)C(=O)N[C@H](C(=O)O)C(C)C)[C@@H](C)O [PTEN_13] ({X1-Suc}-PFDEDQHTQITKV-OH) 0.077

Values were extracted from paper PMC7774954.
